# target system: Neutrophil elastase (Homo sapiens) (UniProt P08246)
# Sequence (whole entry): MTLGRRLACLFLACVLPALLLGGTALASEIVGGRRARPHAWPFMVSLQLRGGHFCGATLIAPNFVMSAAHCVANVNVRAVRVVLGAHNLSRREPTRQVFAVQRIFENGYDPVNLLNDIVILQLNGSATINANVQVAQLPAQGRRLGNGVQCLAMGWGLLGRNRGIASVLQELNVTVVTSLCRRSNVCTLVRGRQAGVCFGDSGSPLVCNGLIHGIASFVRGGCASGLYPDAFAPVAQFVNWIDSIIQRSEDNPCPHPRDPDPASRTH
# experiment notes: Second order rate constant for enzyme-inhibitor complex Human Leukocyte Elastase inhibition was determined
value kind: kon (10e3* M-1 s-1)

P: COC(=O)CSc1nc2sc(C)c(C)c2c(=O)o1
Q: Cc1sc2nc(NC(C)C)oc(=O)c2c1C
R: CSc1nc2sc3c(c2c(=O)o1)CCCC3
Ascending by kon (10e3* M-1 s-1), please: list the compounds accordingly. Rank the items, then write their labels in that order.
P, Q, R

====

# target system: Neutrophil elastase (Homo sapiens, UniProt P08246)
# experiment notes: Steady state inhibition constant for Human Leukocyte Elastase inhibition
value kind: Ki (nM)

As a guide, the following entries are already answered.
{"molecule": "CC(C)COc1nc2sc3c(c2c(=O)o1)CCCC3", "target system": "Neutrophil elastase (Homo sapiens, UniProt P08246)", "measurement unit": "nM", "Ki": 51}
{"molecule": "Cc1sc2nc(NC(C)C)oc(=O)c2c1C", "target system": "Neutrophil elastase (Homo sapiens, UniProt P08246)", "measurement unit": "nM", "Ki": 75.5}
{"molecule": "CCOc1nc2sc(C)c(C)c2c(=O)o1", "target system": "Neutrophil elastase (Homo sapiens, UniProt P08246)", "measurement unit": "nM", "Ki": 10.7}
{"molecule": "CCCOc1nc2sc3c(c2c(=O)o1)CCCC3", "target system": "Neutrophil elastase (Homo sapiens, UniProt P08246)", "measurement unit": "nM", "Ki": 1.43}
{"molecule": "CCSc1nc2sc3c(c2c(=O)o1)CCCC3", "target system": "Neutrophil elastase (Homo sapiens, UniProt P08246)", "measurement unit": "nM", "Ki": 5.7}
{"molecule": "Cc1sc2nc(OCC(C)C)oc(=O)c2c1C", "target system": "Neutrophil elastase (Homo sapiens, UniProt P08246)", "measurement unit": "nM", "Ki": 133}
{"molecule": "CCOc1nc2sc3c(c2c(=O)o1)CCCC3", "target system": "Neutrophil elastase (Homo sapiens, UniProt P08246)", "measurement unit": "nM", "Ki": 1.36}
{"molecule": "COC(=O)CSc1nc2sc3c(c2c(=O)o1)CCCC3", "target system": "Neutrophil elastase (Homo sapiens, UniProt P08246)", "measurement unit": "nM", "Ki": 17.9}

a: CCCOc1nc2sc(C)c(C)c2c(=O)o1
b: Cc1sc2nc(SCc3ccccc3)oc(=O)c2c1C
Hey, which is lower on measured Ki, a or b ? Give the chosen item's label as your response.
a

A: CC(C)Nc1nc2sc3c(c2c(=O)o1)CCCC3
B: CCOc1nc2scc(C(C)C)c2c(=O)o1
Lab note: check whether A or B shows the higher recorded Ki. I would appreciate it if you answered with the label of your choice.
A
(A: 145 nM, B: 5.61 nM)
